Reference source for all entries: the supplement of paper PMC4371806

Tested on: Escherichia coli BW25113
Test: plate-normalized OD600 growth (mean of duplicates) (OD600 (normalized)); higher = more growth (less inhibition)
Conditions: temperature: 37°C; 24 h; 10 µM
Over roughly 1,600 compounds, “plate-normalized OD600 growth (mean of duplicates)” has its median near 0.31; the lowest 2% begin near 0.23. For the sample, the lowest values were picked, then their nearest neighbours and some compounds at random.
endpoint: plate-normalized OD600 growth
# print the numeric value only

> print(dat)
                               molecule                       endpoint  result.value
1  CC(C)(C)NC(=O)c1ccccc1C(=O)NC(C)(C)C  plate-normalized OD600 growth          0.63
2            Cc1ccc(CN(C)CCc2ccccn2)cc1  plate-normalized OD600 growth         0.619
3            CC(=O)N1CCC(NC2CCCCCC2)CC1  plate-normalized OD600 growth          0.62
4          C=C(C)CN(CC)C1CCN(C(C)=O)CC1  plate-normalized OD600 growth         0.627

Shifting focus to the molecule that follows.
Answer with reported plate-normalized OD600 growth of "C1CCCC(NCCN2CCCCC2)CCC1"
0.588

---

Below is a list of entries, each paired with its recorded plate-normalized OD600 growth value.
Tested on: Escherichia coli BW25113
Assay: plate-normalized OD600 growth (mean of duplicates) (OD600 (normalized)); higher = more growth (less inhibition)
Conditions: temperature: 15°C; 48 h; 10 µM
The full ranking holds about 1,600 compounds; the median of “plate-normalized OD600 growth (mean of duplicates)” is about 0.31, and the lowest 2% start at about 0.23. Only a selection was taken, and the lowest values are over-represented in it overall.
Lab note: jot the number down without any unit.

Answered cases to consult:
> print(dat)
                                   compound                       endpoint  result.value
1  O=C(O)Cn1c2ccccc2c2cc([N+](=O)[O-])ccc21  plate-normalized OD600 growth         0.226
2      Cc1cc(=O)[nH]c2ccc([N+](=O)[O-])cc12  plate-normalized OD600 growth         0.244

Complete the entry with plate-normalized OD600 growth for "O=[N+]([O-])c1ccc(N2CCN(Cc3cccs3)CC2)cc1"
0.22

Give plate-normalized OD600 growth for the following compound: "O=C(/C=C/c1ccc(-c2cc(Cl)ccc2Cl)o1)c1ccco1"
0.25

Check the records and state plate-normalized OD600 growth for "N#CCCN(CCN1CCCC1)S(=O)(=O)c1cccc2nsnc12"
0.253

Name the recorded plate-normalized OD600 growth of the item Cn1cccc1C1Nc2ccccc2NC2=C1C(=O)CC(C)(C)C2 (configuration not stated) in your answer.
0.222

Please report plate-normalized OD600 growth for the following compound: "Cn1c(C=O)nc2cc([N+](=O)[O-])ccc21"
0.241

Quickly give me recorded plate-normalized OD600 growth for O=[N+]([O-])c1ccccc1/C=C/CN1CCCCC1CO (configuration not stated)
0.264

Please supply the value of reported plate-normalized OD600 growth for the item "O=C(O)c1ccc(S(=O)(=O)c2ccc(O)cc2)cc1"
0.247

Give the measured plate-normalized OD600 growth for "Clc1ccccc1N1CCN(Cc2ccc(Br)o2)CC1"
0.245

Assign plate-normalized OD600 growth to the following record: "Cc1onc(-c2ccccc2Cl)c1C(=O)NCc1ccc2c(c1)OCO2"
0.261

Specify reported plate-normalized OD600 growth for the compound shown: "CCOC(=O)N1CCN(Cc2c(F)cccc2F)CC1"
0.263

Fill in plate-normalized OD600 growth for record O=C(CC1Nc2ccccc2NC1=O)Nc1ccccc1 (configuration not stated)
0.24
